B1: TPR t1 (parent)
chain: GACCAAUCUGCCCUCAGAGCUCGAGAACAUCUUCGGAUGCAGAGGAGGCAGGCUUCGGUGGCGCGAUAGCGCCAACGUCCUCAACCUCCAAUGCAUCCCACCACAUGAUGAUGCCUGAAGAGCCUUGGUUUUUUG

variants of: B1; test: polymerase ribozyme fitness, log enrichment relative to wild type (log ratio); higher = more active; in vitro selection for triplet polymerase activity
Provide the reported polymerase ribozyme fitness (log ratio) of each item.
Give bare numbers.

Please review the entries below; each comes with its answer.
GACCAAUCUGGCCUCAGAGCUCGAGAACAUCUUCGGAUGCAGAGGAGGCAGGCUUCGGUGGCGCGAUAGCGCCAACGUCCUCAACCUCCAAUGCAUCCCACCACAUGAUGAAGCCUGAAGAGCCUUGGUUUUUUG [C11G U112A]: 1.42
GACCAAUCUGCCCUCAGAGCUCGAGAAGAUCUUCGGAUGCAGAGGAGGCAGGCUUCGGUGGCGCGAUAGCGCCAACGUCCUCAACCUCCAAUGCAUCCCACCACAUGAUGAUGCCUAAAGAGCCUUGGUUUUUUG [C28G G117A]: -4.12
GACCAAUCUGCCCUCAGAGCUCGAGAACAUCUUCGGAUGCAGAGGAGGCAGACUUCGGUGGCGCGAUAGCGCCGACGUCCUCAACCUCCAAUGCAUCCCACCACAUGAUGAUGCCUGAAGAACUUUGGUUUUUUG [G52A A74G G122A C124U]: 0.026
GACCAAUCUGCCCUCAGAGCUCGAGAACAUCUUCGGAUGCAGAUGAGGCAGGCUUCGGCGGCGCGAUAGCGCCAACGUCCUCAACCUCCAAUGCAUCCCACCACAUGAUAAUGCCUGAAGAGCCUUAGUUUAUUG [G44U U59C G110A G127A U132A]: -4.19
GACCAAUCUGGCGUCAGAGCUCGAGAACAUCUUCGGAUGCAGAGAAGGCAGGCUUCGGUGGCGCGAUAGCGCCAACGUCCUCAACCUCCAAUGCAUCCCACCACAUGAUGAUGCCUAAAGAGCCUUGGUUUUUUG [C11G C13G G45A G117A]: -1.92

Batch: polymerase ribozyme fitness (log ratio) for all items listed.
1. GACCAAUCUGCCCUCACAGCUCGAGAACAUCUUCGGAUGCAGAGGAGGCAGGCUUCGGUGGCGCGAUAGCGCCAACGUCCUCAACCUCCCAUGCAUCCCACCACAUGAUGAUGCCUGAAGCGCCUUGGUUUUUUG [G17C A90C A121C]
2. GCCCAAUCUGCCCUCAGAGCUCGAGAACAUCUUCGGAUGCAGAGGAGGCAGGCUUCGGUGGCGCGAUAGCGCCAACGUCCUCAACCUCCAAUGCAUCCCACAACAUGAUGAUGCCUGAAGAGCCUUGGUUUUUUG [A2C C102A]
3. GACCAAUCUGCCCUCAGAGCUCGAGAACAUCUUCGGAUGCAGAGGAGGCAGGCUUCGGUGGAGCGAUAGCGCCAACGUCCUCAACCUCCAAUGCAUCCCACCACAUGAUGAUGCCUGAAGAGCCUUGGUUUUUUC [C62A G135C]
4. GACCAAUCUGCCCUCAGAGCUCGAGAACAUCUUCGGAUGCAGAGGAGGCAGGCUUCGGUGGCGCGAUAGCGCCAACGUCCUCAACCUCCAAUGCAUCCCACCACAUGAUGAGGCCCGAAGAGCCUUGGUUUUUUG [U112G U116C]
5. GACCAAUCUGCCCUCAGAGCUCGAGAACAUCCUCGGAUGCAGAGGAGGCAGGCUUCGGUGGCGCGAUAGCGCCAACGUUCUCAACCUCCAAUGCAUCCCACCACACGAUGAUGCCUGAAGAGCCUUGGUUUUUUG [U32C C79U U106C]
6. GACCAAUCUGCCCUCAGAGCUCGAGAACAUCUUCGGAUGCAGAGGAGGCAUGCUUCGGUGGCGCGAUAGCCCCAACGUCCUCAACCUCCAAUGCAUCCCACCACAUGAUGAUGCCUGAAGAGCCUUGGUUUUUUG [G51U G71C]
7. GACCAAUCUGCCCUCAGAGCUCGAGAACAUCUUCGGAUGCAGAGGAGGCAGGAUUCGGUGGCGCGAUAGCGUCAACGUCCUCAACGUCCAAUGCAUCCCACCACAUGAUGAUGCUUGAAGAGCCUUGGUUUUUUG [C53A C72U C86G C115U]

[-1.46, -3.35, -0.579, -0.775, -0.788, -5.37, -1.64]

Batch: polymerase ribozyme fitness (log ratio) for all items listed.
1. GAUCAAUCUGCCCUCAGAGCUCGAGAACAUCUUCGGAUGCAGAGGAGGCAGGCUUCGGUGGCGCGAUAGCGCCAACGUCCUCAACCACCAAUGCAUCCCACCCCAUGAUGAUGCCUGAAGAGCCUUGGUUUUUUG [C3U U87A A103C]
2. GACCAAUCUGCGCCCAUAGCUGGAGAACAUCUUCGGAUGCAGAGGAGGGAGGCUUCGGUGGCGCGAUAGCGCCAACGUCCUCAACCUCCAAUGCAUCCCACCACAUGAUGAUGCCUCAAGAGCCUUGGUAUUUUG [C12G U14C G17U C22G C49G G117C U130A]
3. GACCAAUCUGCCCUCAGAGCUCGAGAACAUCUUCGGAUGCAGAGGAGGCAGGCUUCGGUGGCGCGAUAGCGCCAACGUCCUCAACCUCCAAUGCAUCCCAUCUCAUGAUGAUUCCUGAAGAGCCUUGGUUUUUUG [C101U A103U G113U]
4. GACCAAUCUGCCCUCAGAGCUCGAGAACAUCUUCGGAUGCAGAGGAGGCAGGCUUCGGUGGCGCGAUAGUGCCAACGUCCUCAACCUCCAAUGCAUCCCACCACGUGAUGAUACCUGAAGAGCCUUGGUUUUUUG [C70U A105G G113A]
5. GACCAAUCUGCCCUCAGAGCUCGAGGACAUCUUCGGAUGCAGAGGAGGCAGGCUUCGGUGGCGCGAUAUAGCCAACGUCCUCAACCUCCAAUGCAUCCCACCACAUGAUGAUUCCUGAAGAGCCUUGGUUUUUUG [A26G G69U C70A G113U]
6. GACCAAUCUGACCUCAGAGCUCGAGAACAUCUUCGGAUGCAGAGGAGGCAGGCUUCGGUGGGGCGAUAGCGCCAACGUCCUCAACCUCCAAUGCAUCCCACCACAUGAUGAUGCCUGAAGAGCCUUGGUUUUUUG [C11A C62G]
7. GACCAAUCUGCCCUCAGAGCUCGAGAACAUCUUCGGAUGCAGAGGAGGCAGGCUUCGGUGUCGCGAUAGCGCCAACGUCCUCAACCUCCAAUGCAUCCCACCACAUGAUGAUGCCUGAAGAGCAUUGGUUUUUUG [G61U C124A]

-5.54
-6.43
-7.03
-4.28
-4.8
-2.04
1.54

Batch: polymerase ribozyme fitness (log ratio) for all items listed.
1. GACCAAUCUGCCCUCAGAGCUCGAGAACAUCUUCGGAUGCAAAGGAGGCAGGCUUCGGUGGCGCGAUAGCGCCAACGUCCUCAACCUCCAAUGCCUCCCACCACAUGAUGAUGCCUGAAGAGCCUUGGUUUUUUG [G42A A95C]
2. GACCAAUCUGCCCUCAGAGCUCGAGAACAUCUUCGGAUGCAGAGGAGGCAGGCUUCGGUGGCGCGAUAGCGCCAACGUCCUCAACCUAGAAUGCAUCCCACCACAUGAUGAUGCCUGAAGAGUCUUGGUUUUUGG [C88A C89G C123U U134G]
3. GACCAAACUGCCCUCAGAGCUCGAGAACAUCUUCGGAUGCAGAGGAGGUAGGUUUCGGAGGCGCGAUAGCGCCAAAGUCCUCAACCUCCAAUGCAUCCCACCACAUGAUGAUGCCUGAAGAGCCUUGGUUUUUUG [U7A C49U C53U U59A C76A]
4. GACCAAUCUGCCCUCAGAGCUCGAGAACAUCUUCGGAUGCAGAUGAGGCAGGCUUCGCUGGAGCGAUAGCGCCAACGUCCUCAACCUCCAAUGCAUCCCACCACAUGAUGAUGCCUGAAGAGCCUUGGUUUUUUG [G44U G58C C62A]
5. GACCAAUCUGCCCUCAGAGCUCGAGAACAUCUUCGGAUGCAGAGGAGGAAGGCUUAGGUGGCACGAUAGCGCCAUCGUCCUCCACCUCCAAUGCAUCCCACCACAUGAUGAUUCCUGAAGAGGCUUAGUUUUUUG [C49A C56A G63A A75U A83C G113U C123G G127A]
6. GACCAAUCUGCCCUCAGAGCUCGAGAACAUCUUCGGAUGCAGAGGAGGUAGGCUUCGGUGGCGCGAUAGCGCCAACGUCCUCAACUUCCAAUGCAUUCCACCACAUGAUGAUGCCUCAAGAGCAUUGGUUUUUUG [C49U C86U C97U G117C C124A]

[-1.94, 0.911, -0.656, -2.17, -5.69, -4.42]

Batch: polymerase ribozyme fitness (log ratio) for all items listed.
1. GACCAAUCUGCCCUCAGAGGUCGAGAACAUCUUCGGAUGCAGAGGAGGCAGGCUUCGGUGGCCCGAUAGCGCCAACGUCCUCAACCUCCAAUGCAUCCCACCACAUGAUGAUGCCUGAAGAGCCUUGGUUUUUUG [C20G G63C]
2. GACCAAUCUGCCCUCAGAGCUCGAGAACAUCUUCGGAUGCAGAGGAGGCAGGCUUCGGUGGCGCGAUAGCGCCAACGUCCUCAACCUCCAAUGCAUCCUACCACAUGAUGAUGCCUGAAGAGGCUUGGUUUUUUG [C99U C123G]

[-4.72, -1.13]
